Molecular target: T1, AF9 YEATS domain (human, UniProt P42568 1-138)
T1 sequence (looked up): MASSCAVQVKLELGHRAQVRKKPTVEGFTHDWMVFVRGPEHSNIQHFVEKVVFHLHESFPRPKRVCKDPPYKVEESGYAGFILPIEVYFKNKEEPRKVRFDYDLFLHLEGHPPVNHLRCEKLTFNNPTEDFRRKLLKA
Assay: BLI
No end group written: not given here. *: point of attachment. Oxazole(5-CO) = O=C(c1cnco1)*; Crotonyl(E) = C/C=C/C(=O)*; 2Furoyl = O=C(c1ccco1)*; Butyryl = CCCC(=O)*
Listed next: entries and their corresponding Kd.
Number only, in nM; omit the unit.

Below, 3 binders whose answers are already recorded.
YDVYCYK(Oxazole(5-CO))-NH2 [ENL-S1o] = 55.1
YDVYCYK(Crotonyl(E))-NH2 [ENL-S1c] = 147
YDVYCYK(Butyryl)-NH2 [ENL-S1] = 205

Now for the binder whose Kd we want.
For YDVYCYK(2Furoyl)-NH2 [ENL-S1f] , what is its reported Kd? 144
